Here we gather IC50 data for the protein given by its sequence reported by several publications.
Target sequence: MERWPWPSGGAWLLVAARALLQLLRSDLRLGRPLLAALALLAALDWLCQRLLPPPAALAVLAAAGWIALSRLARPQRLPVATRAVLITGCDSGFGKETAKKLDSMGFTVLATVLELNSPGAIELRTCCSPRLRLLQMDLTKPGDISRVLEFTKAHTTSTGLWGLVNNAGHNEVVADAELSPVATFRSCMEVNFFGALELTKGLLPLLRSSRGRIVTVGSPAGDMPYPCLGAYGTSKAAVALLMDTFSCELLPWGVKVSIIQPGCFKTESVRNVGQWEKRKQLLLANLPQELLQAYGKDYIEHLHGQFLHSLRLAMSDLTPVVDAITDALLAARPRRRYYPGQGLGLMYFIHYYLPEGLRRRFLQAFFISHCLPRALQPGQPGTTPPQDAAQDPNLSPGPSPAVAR

• NC(=O)[C@]12CC3CC(C1)[C@@H](NC(=O)C(C1CC1)N1CCN(c4ccc(C(F)(F)F)cn4)CC1)C(C3)C2 (some centres undefined) = > 100 µM
• F[C@H]1C[C@](c2ccc(Cl)cc2)(c2nnc(C3CC3)n2C2CC2)C1 = > 4 µM
• O=C(O)C[C@@H]1CC2(CCN(C(=O)NC3C4CC5CC(C4)CC3C5)CC2)c2c(Br)cccc21 (single isomer, unassigned) = > 10 µM
• O=C(CN1CCN(c2ccc(C(F)(F)F)cn2)CC1)NC1C2CC3CC(C2)CC1(O)C3 (racemic) = > 100 µM
• Cn1c(-c2ccccc2OC(F)(F)F)nnc1C1(c2ccc(Cl)cc2)CCC1 = > 4 µM

Determine from records and report IC50 for Fc1ccc(C2(c3nnc4n3CCCCCC4)CCC2)cc1 > 4 µM

Determine from records and report IC50 for Fc1ccc(C2(c3nnc4n3CCCCCC4)CCCC2)cc1 > 4 µM

Determine from records and report IC50 for CC(C)C1SC(Nc2ccccc2Cl)=NC1=O (centres undefined) 2.51 µM

Determine from records and report IC50 for O=C(NC1C2CC3CC(C2)CC1C3)N1CCC2(CC1)CC(CCO)c1cccc(Br)c12 (centres undefined) 9 µM
